Molecular target: VCB complex (Homo sapiens)
Construct: His6 (TEV site) (N, cleaved yes); made in house
Sequence (P40337 54-213): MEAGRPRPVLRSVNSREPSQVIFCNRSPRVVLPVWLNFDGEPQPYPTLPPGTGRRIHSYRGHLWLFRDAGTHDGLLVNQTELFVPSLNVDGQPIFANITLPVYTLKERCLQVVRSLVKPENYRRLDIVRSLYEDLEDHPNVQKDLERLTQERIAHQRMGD
Sequence (Q15369 17-112 partner limits assumed): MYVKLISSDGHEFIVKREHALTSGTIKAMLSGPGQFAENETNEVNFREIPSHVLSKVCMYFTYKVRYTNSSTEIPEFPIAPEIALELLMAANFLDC
Sequence (Q15370 1-104 partner limits assumed): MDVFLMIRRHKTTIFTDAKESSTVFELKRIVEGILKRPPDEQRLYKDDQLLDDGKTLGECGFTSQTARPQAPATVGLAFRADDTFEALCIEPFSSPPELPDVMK
Assay: SPR binary binding to immobilised VCB complex
Settings: binary binding to VCB, mean ± SD
pKd: −log10 of the molar value.
# pKd per entry
endpoint label: pKd

>>> test_value("Cc1ncsc1-c1ccc(CNC(=O)[C@@H]2C[C@@H](O)CN2C(=O)[C@@H](NC(=O)C2(F)CC2)C(C)(C)C)c(OCCOCCOCCOCCN2CCC(c3ccc4c(c3)n(C3CCCC3)c3nc(=O)c5c(Br)cccc5n43)CC2)c1 [compound 22]")
7.41
>>> test_value("Cc1ncsc1-c1ccc([C@H](COCCCN2CCC(c3ccc4c(c3)n(C3CCCC3)c3nc(=O)c5c(Br)cccc5n43)CC2)NC(=O)[C@@H]2C[C@@H](O)CN2C(=O)[C@@H](NC(=O)C2(F)CC2)C(C)(C)C)cc1 [compound 27]")
7.92
>>> test_value("Cc1ncsc1-c1ccc(CNC(=O)[C@@H]2C[C@@H](O)CN2C(=O)[C@@H](NC(=O)C2(F)CC2)C(C)(C)C)c(OCCOCCOCCN2CCC(c3ccc4c(c3)n(C3CCCC3)c3nc(=O)c5c(Br)cccc5n43)CC2)c1 [compound 21]")
7.68
>>> test_value("Cc1ncsc1-c1ccc([C@H](COC(C)(C)CN2CCC(c3ccc4c(c3)n(C3CCCC3)c3nc(=O)c5c(Br)cccc5n43)CC2)NC(=O)[C@@H]2C[C@@H](O)CN2C(=O)[C@@H](NC(=O)C2(F)CC2)C(C)(C)C)cc1 [compound 28]")
7.26
>>> test_value("Cc1ncsc1-c1ccc([C@H](COCCN2CCC(c3ccc4c(c3)n(C3CCCC3)c3nc(=O)c5c(Br)cccc5n43)CC2)NC(=O)[C@@H]2C[C@@H](O)CN2C(=O)[C@@H](NC(=O)C2(N(C)C)CC2)C(C)(C)C)cc1 [compound 26]")
7.12
>>> test_value("Cc1ncsc1-c1ccc([C@H](CCCCCN2CCC(c3ccc4c(c3)n(C3CCCC3)c3nc(=O)c5c(Br)cccc5n43)CC2)NC(=O)[C@@H]2C[C@@H](O)CN2C(=O)[C@@H](NC(=O)C2(F)CC2)C(C)(C)C)cc1 [compound 11]")
8.05
>>> test_value("Cc1ncsc1-c1ccc(CNC(=O)[C@@H]2C[C@@H](O)CN2C(=O)[C@@H](NC(=O)C2(F)CC2)C(C)(C)C)c(OCCN2CCC(c3ccc4c(c3)n(C3CCCC3)c3nc(=O)c5c(Br)cccc5n43)CC2)c1 [compound 20]")
8.05
>>> test_value("Cc1ncsc1-c1ccc(C(CCC(C)CCN2CCC(c3ccc4c(c3)n(C3CCCC3)c3nc(=O)c5c(Br)cccc5n43)CC2)NC(=O)C2CC(O)CN2C(=O)C(NC(=O)C2(F)CC2)C(C)(C)C)cc1 (stereo not drawn) [ACBI2]")
7.55
>>> test_value("Cc1ncsc1-c1ccc([C@H](CCC(C)(C)CCN2CCC(c3ccc4c(c3)n(C3CCCC3)c3nc(=O)c5c(Br)cccc5n43)CC2)NC(=O)[C@@H]2C[C@@H](O)CN2C(=O)[C@@H](NC(=O)C2(F)CC2)C(C)(C)C)cc1 [compound 30]")
7.54

These entries and their values trace back to paper PMC9551036.
